- System: BT-549
- procedure.details: NCI tumour cell line growth inhibition, 48 h
Calls of active or inactive are those of the source. Rule as the data show it: active = GI50 up to about 1.1 µM and inactive = higher.
Please reply with one of these outcomes: true = active, false = inactive

(Q) Record lookup: outcome of this test for N#CCCN(CCC#N)c1ccc(/C=C2\N=C(c3ccccc3)N(c3ccc(C(=O)O)cc3)C2=O)cc1 ?
(A) false

(Q) Record lookup: outcome of this test for Nc1ccc2c(c1)N(C(=O)c1cc3cc(NC(=O)c4cc5ccccc5o4)ccc3[nH]1)CC2CCl (stereo not given) ?
(A) true

(Q) Record lookup: outcome of this test for COC(=O)C(=O)C(C(=O)OC)C(=O)C(=O)Nc1ccccc1C(N)=O (stereo not given) ?
(A) false

Next:
(Q) Record lookup: outcome of this test for CC(=O)OCC1OC(N2C(S)=C(C#N)C(c3ccco3)C(C(C)=O)=C2c2ccccc2)C(OC(C)=O)C(OC(C)=O)C1OC(C)=O (stereo not given) ?
(A) false

(Q) Record lookup: outcome of this test for O=C1NC(N2CCOCC2)=N/C1=C\c1ccc(Cl)cc1 ?
(A) false

----------
- System: OVCAR-3
- procedure.details: NCI tumour cell line growth inhibition, 48 h
The source made the active and inactive calls. No stated cut-off is given here; in the data, active = GI50 up to about 1.1 µM and inactive = higher.
recorded.endpoint: GI50

(Q) Param item = NC1=NNC(=O)c2nnc3c(C(=O)O)cnn3c2S1 ; retrieve measured GI50.
(A) > 100 µM (inactive)

(Q) Param item = CSc1nc2c(nc(N)n2C2OCC(O)C(O)C2O)c(=O)[nH]1 (stereo unspecified) ; retrieve measured GI50.
(A) > 100 µM (inactive)

(Q) Param item = CN(N=O)C(=O)ON1C(=O)CCC1=O ; retrieve measured GI50.
(A) > 100 µM (inactive)

(Q) Param item = CC1CSC(=S)N1C(=O)N1C(=S)SCC1C (stereo unspecified) ; retrieve measured GI50.
(A) 27.4 µM (inactive)

(Q) Param item = COc1ccc(C2=NOP(c3ccccc3)(c3ccccc3)(c3ccccc3)C2)cc1 ; retrieve measured GI50.
(A) 21.7 µM (inactive)

Next:
(Q) Param item = Cc1ccc(C(=O)/C=C/c2ccccc2Cl)cc1 ; retrieve measured GI50.
(A) 17.3 µM (inactive)

(Q) Param item = OC1c2ccccc2CCC1C(O)(C(F)(F)F)C(F)(F)F (stereo unspecified) ; retrieve measured GI50.
(A) 58.6 µM (inactive)

----------
- System: CAKI-1
- procedure.details: NCI tumour cell line growth inhibition, 48 h
Calls of active or inactive are those of the source. Rule as the data show it: active = GI50 up to about 1.1 µM and inactive = higher.
List of GI50 values.

Worked examples, 6 molecules total:
(Q) Param item = COc1cc2cc3c4c(cc(OC)c(OC)c4c2cc1OC)CCN3C(=O)CCC(=O)NCCCN(C)C ; retrieve measured GI50.
(A) > 100 µM (inactive)

(Q) Param item = CN(N=O)c1nc2c(C(N)=O)ncn2s1 ; retrieve measured GI50.
(A) 28.1 µM (inactive)

(Q) Param item = O=C(O)/C(O)=C1/C=C(c2ccccc2)c2ccccc21 ; retrieve measured GI50.
(A) 31.4 µM (inactive)

(Q) Param item = O=c1c2ccccc2[nH]c2ccc3c(Cl)n[nH]c3c12 ; retrieve measured GI50.
(A) 23.7 µM (inactive)

(Q) Param item = COc1ccc2c(c1)C(CCN)C(=O)N2 (configuration not stated) ; retrieve measured GI50.
(A) > 100 µM (inactive)

(Q) Param item = O=c1[nH]c(N/N=C\C(O)C(O)C(O)C(O)CO)nc2ccccc12 (configuration not stated) ; retrieve measured GI50.
(A) > 100 µM (inactive)

Next:
(Q) Param item = CC(N)Cc1ccc(Cl)c(Cl)c1 (configuration not stated) ; retrieve measured GI50.
(A) 23.6 µM (inactive)

(Q) Param item = Clc1ccc(-c2nn3c(C45CC6CC(CC(C6)C4)C5)nnc3s2)cc1 ; retrieve measured GI50.
(A) > 100 µM (inactive)

(Q) Param item = CSc1nc2ccccc2c(=O)n1/N=C1\C(=O)N(CN2CCCCC2)c2ccc(Cl)cc21 ; retrieve measured GI50.
(A) 23.3 µM (inactive)

(Q) Param item = CC1C(c2ccccc2O)c2cc3c(cc2OC1N1CCOCC1)OCO3 (configuration not stated) ; retrieve measured GI50.
(A) 25.1 µM (inactive)

(Q) Param item = CCc1ccccc1-n1c2nc(=O)n(C)c(=O)c-2nc2ccccc21 ; retrieve measured GI50.
(A) 20 µM (inactive)

Data origin, for the record: ChEMBL document CHEMBL1201862
